# experimental_details: Microsomal stability assay, rat
# Type: in vitro ADME
# run_conditions: metabolic stability, rat liver microsomes 0.5 mg/mL, substrate 3 uM
MS Rat THalf vs 50 min: at or above is satisfied, below is not satisfied.

See these solved cases before continuing.
- O=c1c2cc(-c3ccc(OC(F)(F)F)cc3)ccc2nnn1CCn1cccn1 [II-13]: not satisfied
- O=c1c2cc(-c3ccc(OC(F)(F)F)cc3)ccc2nnn1Cc1ncccn1 [II-24]: satisfied

We now examine a further compound.
Hi team, for O=c1c2cc(-c3ccc(OC(F)(F)F)cc3)ccc2cnn1CCn1cccc1 [III-10] , is the recorded MS Rat THalf at or above 50 min?
not satisfied
